Source: ChEMBL document CHEMBL2057195

assay: Oral bioavailability in rat at 5 mg/kg; assay type: ADME, organism-based; details: in vivo
reported property: bioavailability (%)
Your answer is read as %, so omit the unit and give the number.

Dear colleague, I am looking for the recorded bioavailability of the following compound: Cc1nc(N)nc2c1cc(-c1cn[nH]c1)c(=O)n2N1CCCC1
52

###

test: physchem; details: buffer, pH 6.5
Description: Apparent kinetic solubility of the compound at pH 6.5
reported property: log10(solubility kinetic) (log10 of the value in µM)
// do not treat as linear: log10 of solubility kinetic, unit µM

Known log10(solubility kinetic) results, listed for orientation:
1. Cc1nc(N)nc2c1cc(-c1cn[nH]c1)c(=O)n2N1CCCC1 | 1.63
2. COc1ccc(-c2cc3c(C)nc(N)nc3n(C3CC3)c2=O)cn1 | 1.21
3. COc1ccc(-c2cc3c(C)nc(N)nc3n(C3CCCC3)c2=O)cn1 | 0.60
4. Cc1nc(N)nc2c1cc(-c1cn[nH]c1)c(=O)n2C1CCC1 | 1.11

So what does the record say about log10(solubility kinetic) for COc1ccc(-c2cc3c(C)nc(N)nc3n(C3CCC3)c2=O)cn1 ?
1.05

Could you do the same for Cc1nc(N)nc2c1cc(-c1cn[nH]c1)c(=O)n2C(C)C , please?
1.64

Moving on to the next compound: CCN(CC)n1c(=O)c(-c2cn[nH]c2)cc2c(C)nc(N)nc21
2.64

# iterate: Cc1nc(N)nc2c1cc(-c1cn[nH]c1)c(=O)n2C1CC1
1.22
